Hey, just so you know, these numbers are from paper PMC10313671.

Run Description: Peptide hydrogel formation, vial-inverting method
Type: physicochemical
Details: concentration at which the state was recorded: lowest of 30, 60, 90, 120 mM that gave a gel; 120 mM for non-gelating peptides
Where a SMILES comes first, the peptide text is derived from it.
Experimental Readout: Concentration

Some solved entries appear below for comparison.
{"columns": ["Molecule", "Concentration"],
 "data": [
  ["CC(C)C[C@H](N)C(=O)N[C@@H](Cc1c[nH]c2ccccc12)C(=O)N[C@@H](Cc1ccccc1)C(=O)N[C@@H](Cc1c[nH]c2ccccc12)C(=O)O [LWFW] (H-LWFW-OH)", "30000 µM"],
  ["C[C@@H](O)[C@H](N)C(=O)NCC(=O)N[C@@H](Cc1ccccc1)C(=O)N[C@@H](Cc1ccccc1)C(=O)O [TGFF] (H-TGFF-OH)", "120000 µM"],
  ["N[C@@H](Cc1c[nH]cn1)C(=O)N[C@@H](Cc1c[nH]cn1)C(=O)N[C@@H](Cc1c[nH]cn1)C(=O)N[C@@H](Cc1c[nH]cn1)C(=O)O [HHHH] (H-HHHH-OH)", "120000 µM"],
  ["CC[C@H](C)[C@H](NC(=O)[C@H](Cc1ccc(O)cc1)NC(=O)[C@@H]1CCCN1C(=O)[C@@H](N)Cc1ccc(O)cc1)C(=O)O [YPYI] (H-YPYI-OH)", "120000 µM"],
  ["N[C@@H](CS)C(=O)N[C@@H](Cc1c[nH]c2ccccc12)C(=O)N[C@@H](Cc1c[nH]cn1)C(=O)N[C@@H](Cc1ccc(O)cc1)C(=O)O [CWHY] (H-CWHY-OH)", "120000 µM"]
]}

-- ask Which Concentration is reported for this molecule? CSCC[C@H](NC(=O)[C@@H](N)CCSC)C(=O)N[C@H](C(=O)N[C@H](C(=O)O)C(C)C)C(C)C [MMVV] (H-MMVV-OH)
-- reply 30000 µM

-- ask Likewise for CC[C@H](C)[C@H](NC(=O)[C@@H](NC(=O)[C@H](Cc1c[nH]cn1)NC(=O)[C@@H](N)CC(C)C)[C@@H](C)CC)C(=O)O [LHII] (H-LHII-OH) ?
-- reply 120000 µM

-- ask Likewise for O=C(O)[C@H](Cc1c[nH]c2ccccc12)NC(=O)[C@H](Cc1ccc(O)cc1)NC(=O)[C@H](Cc1c[nH]c2ccccc12)NC(=O)[C@@H]1CCCN1 [PWYW] (H-PWYW-OH) ?
-- reply 120000 µM

-- ask Likewise for CC[C@H](C)[C@H](NC(=O)[C@H](CC(C)C)NC(=O)[C@@H](NC(=O)[C@@H](N)CC(C)C)C(C)C)C(=O)O [LVLI] (H-LVLI-OH) ?
-- reply 30000 µM

-- ask Likewise for CC[C@H](C)[C@H](NC(=O)[C@@H](N)CC(C)C)C(=O)N[C@@H](CCC(=O)O)C(=O)N[C@@H](CCSC)C(=O)O [LIEM] (H-LIEM-OH) ?
-- reply 90000 µM

-- ask Likewise for CC(C)[C@H](NC(=O)[C@@H](N)Cc1c[nH]c2ccccc12)C(=O)N[C@@H](Cc1ccccc1)C(=O)N[C@@H](Cc1ccc(O)cc1)C(=O)O [WVFY] (H-WVFY-OH) ?
-- reply 30000 µM

-- ask Likewise for CC[C@H](C)[C@H](NC(=O)[C@H](Cc1c[nH]c2ccccc12)NC(=O)[C@@H](N)C(C)C)C(=O)N[C@H](C(=O)O)[C@@H](C)O [VWIT] (H-VWIT-OH) ?
-- reply 120000 µM
